target: Cannabinoid receptor 2 (Rattus norvegicus, UniProt Q9QZN9)
Sequence (Q9QZN9 whole entry): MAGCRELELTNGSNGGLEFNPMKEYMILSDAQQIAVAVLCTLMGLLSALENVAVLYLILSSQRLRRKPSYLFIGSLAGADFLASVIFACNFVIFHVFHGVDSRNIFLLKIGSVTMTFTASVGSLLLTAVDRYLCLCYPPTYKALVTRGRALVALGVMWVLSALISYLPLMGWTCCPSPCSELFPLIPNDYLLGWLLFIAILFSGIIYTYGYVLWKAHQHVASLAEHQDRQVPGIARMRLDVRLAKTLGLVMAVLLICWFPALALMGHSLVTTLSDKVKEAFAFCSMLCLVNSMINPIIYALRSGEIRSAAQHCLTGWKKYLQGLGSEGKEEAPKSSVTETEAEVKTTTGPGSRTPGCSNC

| Molecule smiles | Ki, nM |
| --- | --- |
| CCCCCOc1c(OC)ccc2cc(C(=O)NCc3ccc4c(c3)OCO4)c(=O)[nH]c12 | 0.38 |

---

In what follows, each item is paired with its pKi for Cannabinoid receptor 2 (Mus musculus).
pKi: −log10 of the molar value.
Readout label: pKi

| Molecule | Readout value |
| --- | --- |
| CCCCCc1cc(O)c2c(c1)OC(C)(C)[C@@H]1CCC(C)=CC21 (stereo partly drawn) [Tetrahydrocannabinol] | 8.76 |
| CCCCCOc1c(OC)ccc2cc(C(=O)NCc3ccc4c(c3)OCO4)c(=O)[nH]c12 | 8.81 |
| Cc1c(C(=O)c2cccc3ccccc23)c2cccc3c2n1[C@H](CN1CCOCC1)CO3 | 9.25 |

---

biological target: Cannabinoid receptor 1 (Rattus norvegicus, UniProt P20272)
Sequence (P20272 whole entry): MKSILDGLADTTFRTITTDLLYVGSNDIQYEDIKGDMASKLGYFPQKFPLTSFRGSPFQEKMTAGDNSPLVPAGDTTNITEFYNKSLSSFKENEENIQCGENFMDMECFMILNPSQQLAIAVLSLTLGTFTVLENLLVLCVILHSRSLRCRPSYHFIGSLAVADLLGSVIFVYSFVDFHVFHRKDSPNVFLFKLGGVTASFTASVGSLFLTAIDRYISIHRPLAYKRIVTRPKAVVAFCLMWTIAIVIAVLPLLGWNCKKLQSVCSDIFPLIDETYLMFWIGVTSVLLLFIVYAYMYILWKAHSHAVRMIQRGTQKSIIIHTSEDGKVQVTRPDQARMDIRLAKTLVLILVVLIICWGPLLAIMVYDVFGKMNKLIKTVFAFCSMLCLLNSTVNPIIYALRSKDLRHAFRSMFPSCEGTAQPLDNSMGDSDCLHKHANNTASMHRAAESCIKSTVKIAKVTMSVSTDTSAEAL
pKi: −log10 of the molar value.

| Molecule smiles | pKi |
| --- | --- |
| CCCCCOc1c(OC)ccc2cc(C(=O)NCc3ccc4c(c3)OCO4)c(=O)[nH]c12 | 5.98 |

---

target: Cannabinoid receptor 1 (Mus musculus, UniProt P47746)
Sequence (P47746 whole entry): as the sequence (P20272 whole entry) above, with E95D counted along it
pKi: −log10 of the molar value.
Readout label: pKi

| Molecule smiles | Readout value |
| --- | --- |
| CCCCCOc1c(OC)ccc2cc(C(=O)NCc3ccc4c(c3)OCO4)c(=O)[nH]c12 | 5.97 |
